These entries and their values trace back to the kinase profiling compilation of Christmann-Franck et al. (2016).

Target: PRKCZ (human) (UniProt Q05513)
Sequence (Q05513 whole entry, looked up): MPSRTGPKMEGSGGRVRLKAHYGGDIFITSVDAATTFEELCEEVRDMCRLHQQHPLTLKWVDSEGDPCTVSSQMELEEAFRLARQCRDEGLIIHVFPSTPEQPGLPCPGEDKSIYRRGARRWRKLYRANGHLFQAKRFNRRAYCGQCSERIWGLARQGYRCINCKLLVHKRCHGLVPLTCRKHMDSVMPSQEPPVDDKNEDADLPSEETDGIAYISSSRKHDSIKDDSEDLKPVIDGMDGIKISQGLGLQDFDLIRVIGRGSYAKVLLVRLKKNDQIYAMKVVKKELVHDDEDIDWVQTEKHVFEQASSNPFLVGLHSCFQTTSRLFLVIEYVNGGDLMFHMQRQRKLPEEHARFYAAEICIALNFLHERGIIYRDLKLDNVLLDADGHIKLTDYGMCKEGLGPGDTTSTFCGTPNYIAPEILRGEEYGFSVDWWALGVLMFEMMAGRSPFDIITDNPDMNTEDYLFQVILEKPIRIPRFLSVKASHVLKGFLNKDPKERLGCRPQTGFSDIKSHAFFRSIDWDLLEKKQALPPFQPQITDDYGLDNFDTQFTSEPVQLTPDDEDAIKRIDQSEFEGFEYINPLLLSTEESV
Experiment: radiometric filter-binding kinase assay
Details: compound 1.0 µM
QUANTITY KIND: residual activity (%)
One number for each entry, in %.

Below, each entry is followed by its recorded residual activity result.
| COMPOUND SMILES | residual activity (%) |
| --- | --- |
| Cc1cccc(-c2nn(C(=S)Nc3ccccc3)cc2-c2ccnc3ccccc23)n1 | 100 |
| COc1cc2ncn(-c3cc(OCc4ccccc4S(C)(=O)=O)c(C#N)s3)c2cc1OC | 97 |
| O=C1NC(=S)N[C@@H]1Cc1c[nH]c2ccccc12 | 77 |
| NC(=O)c1cc(-c2ccnc(NC3CCCCC3)c2)nc(N2CCNCC2)c1 | 109 |
| Cn1nc(Nc2ccc(F)cc2)c2c(N)ncnc21 | 97 |

# batch size: 2; output residual activity per entry
1. COc1ccc(-n2ncc3cnc(Nc4cc(OC)c(OC)c(OCCCN5CCN(C)CC5)c4)nc32)cc1
2. CN(C)C/C=C/C(=O)Nc1cccc(C(=O)Nc2ccc(Nc3nccc(-c4cccnc4)n3)cc2)c1

Response line:
[78, 103]

----------
Exercise: state measured residual activity for each of the compounds provided.
Target: EPHB4 (human) (UniProt P54760)
Sequence (P54760 whole entry, looked up): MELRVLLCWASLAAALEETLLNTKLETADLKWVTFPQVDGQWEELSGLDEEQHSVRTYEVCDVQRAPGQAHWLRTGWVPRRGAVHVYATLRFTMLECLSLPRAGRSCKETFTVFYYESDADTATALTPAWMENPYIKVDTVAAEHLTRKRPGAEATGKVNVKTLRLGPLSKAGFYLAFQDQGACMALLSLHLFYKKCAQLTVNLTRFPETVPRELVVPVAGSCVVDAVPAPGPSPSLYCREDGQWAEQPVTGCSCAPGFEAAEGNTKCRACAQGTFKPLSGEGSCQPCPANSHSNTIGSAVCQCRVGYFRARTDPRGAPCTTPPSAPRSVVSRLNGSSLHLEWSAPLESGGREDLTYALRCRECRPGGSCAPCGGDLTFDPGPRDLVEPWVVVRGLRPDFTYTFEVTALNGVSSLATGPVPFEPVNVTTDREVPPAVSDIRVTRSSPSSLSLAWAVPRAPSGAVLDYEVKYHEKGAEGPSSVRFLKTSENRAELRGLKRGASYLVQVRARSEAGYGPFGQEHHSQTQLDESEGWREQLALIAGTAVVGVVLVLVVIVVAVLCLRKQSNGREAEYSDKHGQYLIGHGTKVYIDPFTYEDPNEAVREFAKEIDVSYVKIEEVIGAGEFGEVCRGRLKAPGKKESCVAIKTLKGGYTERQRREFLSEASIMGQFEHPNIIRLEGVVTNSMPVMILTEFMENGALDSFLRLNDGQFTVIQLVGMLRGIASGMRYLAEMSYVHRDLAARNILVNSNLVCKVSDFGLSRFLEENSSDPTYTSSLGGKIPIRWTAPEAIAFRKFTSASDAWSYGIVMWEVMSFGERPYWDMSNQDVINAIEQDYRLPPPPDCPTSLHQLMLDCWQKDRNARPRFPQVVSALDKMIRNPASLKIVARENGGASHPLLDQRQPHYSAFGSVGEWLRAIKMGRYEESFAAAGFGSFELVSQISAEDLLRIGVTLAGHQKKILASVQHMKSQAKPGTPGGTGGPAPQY
Experiment: radiometric filter-binding kinase assay
Conditions: compound 0.01 µM
Please state the value followed by its unit.

Below, each entry is followed by its recorded residual activity result.
| COMPOUND | OBSERVED MEASUREMENT |
| --- | --- |
| COc1ccc(N(C(=O)Nc2c(C)cccc2C)c2cc(Nc3ccc(N4CCN(C)CC4)cc3)ncn2)c(OC)c1 | 110% |
| COc1cc(O)c2c(c1)[C@H]1OC1C[C@H](O)[C@H](O)C(=O)/C=C\C[C@H](C)OC2=O (some centres undefined) | 109% |
| CNC(=O)C1[C@H]2O[C@@](C)([C@@H]1N)n1c3ccccc3c3c4c(c5c6ccccc6n2c5c31)C(=O)NC4 (some centres undefined) | 102% |

Now look at this entry.
Prompt line: For the compound shown here, O=C(Nc1nc2cc(C(F)(F)F)cc(NC3CC3)n2n1)c1cccnc1 , give the reported residual activity.
Response line: 106%

----------
Exercise: state measured residual activity for each of the compounds provided.
Target: TBK1 (human)
Assay: radiometric filter-binding kinase assay
Settings: compound 1.0 µM
One number for each entry, in %.

| COMPOUND | SYSTEM UNDER TEST | residual activity [%] |
| --- | --- | --- |
| Cn1c(=O)c2c(ncn2C)n(C)c1=O | TBK1 (human) | 96 |
| O=C(NOC[C@H](O)CO)c1ccc(F)c(F)c1Nc1ccc(I)cc1Cl | TBK1 (human) | 117 |
| Cc1ccc(Sc2cnc(Nc3cccc(Br)n3)s2)cc1C(=O)N1CCN(C(=O)CN)CC1 | TBK1 (human) | 78 |
| N#Cc1c(C2CCNCC2)cc(-c2c(O)cccc2OCC2CC2)nc1N | TBK1 (human) | 80 |
| CCn1c(-c2nonc2N)nc2cncc(CNC3CCNCC3)c21 | TBK1 (human) | 93 |
| CNc1nc(-c2ccc3c(N)n[nH]c3c2)cc(N2C[C@@H](C(=O)NC3CCCCC3)CC[C@H]2C)n1 | TBK1 (human) | 89 |

# batch size: 5; output residual activity per entry
1. CC(C)(C#N)c1ccc(N2C(=O)OCc3cnc4ccc(-c5cnc6ccccc6c5)cc4c32)cc1
2. COc1cc(O)c2c(c1)/C=C/C[C@H](O)[C@H](O)C(=O)/C=C\C[C@H](C)OC2=O
3. COc1cc(O)c2c(c1)[C@H]1OC1C[C@H](O)[C@H](O)C(=O)/C=C\C[C@H](C)OC2=O (stereo not given in full)
4. COc1ccc(-n2ncc3cnc(Nc4cc(OC)c(OC)c(OCCCN5CCN(C)CC5)c4)nc32)cc1
5. COc1cc2ncn(-c3cc(OCc4ccccc4S(C)(=O)=O)c(C#N)s3)c2cc1OC

Response line:
1. 83
2. 102
3. 93
4. 8
5. 21

----------
Biological target: ABL1 (human) (UniProt P00519)
Sequence (P00519 whole entry, looked up): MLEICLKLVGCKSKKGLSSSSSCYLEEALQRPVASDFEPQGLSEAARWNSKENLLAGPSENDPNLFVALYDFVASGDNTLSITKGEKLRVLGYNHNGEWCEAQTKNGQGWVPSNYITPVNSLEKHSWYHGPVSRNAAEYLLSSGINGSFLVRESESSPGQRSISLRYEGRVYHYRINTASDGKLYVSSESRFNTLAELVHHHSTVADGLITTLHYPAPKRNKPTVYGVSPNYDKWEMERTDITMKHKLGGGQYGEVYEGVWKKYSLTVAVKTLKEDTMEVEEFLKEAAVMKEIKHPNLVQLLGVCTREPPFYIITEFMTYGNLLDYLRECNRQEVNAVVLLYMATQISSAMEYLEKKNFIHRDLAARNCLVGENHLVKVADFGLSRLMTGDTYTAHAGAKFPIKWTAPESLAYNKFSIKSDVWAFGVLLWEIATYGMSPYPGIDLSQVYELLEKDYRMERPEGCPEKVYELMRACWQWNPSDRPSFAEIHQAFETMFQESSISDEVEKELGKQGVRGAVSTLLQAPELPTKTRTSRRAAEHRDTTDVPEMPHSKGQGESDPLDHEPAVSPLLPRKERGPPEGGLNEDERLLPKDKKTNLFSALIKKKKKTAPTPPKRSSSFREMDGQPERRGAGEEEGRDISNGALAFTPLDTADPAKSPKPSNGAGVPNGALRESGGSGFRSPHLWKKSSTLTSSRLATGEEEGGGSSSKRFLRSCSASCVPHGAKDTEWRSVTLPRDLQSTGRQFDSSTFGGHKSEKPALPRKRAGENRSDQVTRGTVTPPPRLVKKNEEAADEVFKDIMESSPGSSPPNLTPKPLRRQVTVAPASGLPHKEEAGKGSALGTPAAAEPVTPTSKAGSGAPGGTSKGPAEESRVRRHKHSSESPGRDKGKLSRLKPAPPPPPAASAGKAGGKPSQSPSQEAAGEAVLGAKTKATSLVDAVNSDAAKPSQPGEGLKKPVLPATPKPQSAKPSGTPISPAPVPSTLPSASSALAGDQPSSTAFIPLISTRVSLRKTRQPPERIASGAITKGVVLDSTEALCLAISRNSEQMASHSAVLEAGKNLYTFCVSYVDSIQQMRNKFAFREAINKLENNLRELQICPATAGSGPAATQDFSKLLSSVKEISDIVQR
Assay: radiometric filter-binding kinase assay
Conditions: compound 0.1 µM
QUANTITY KIND: residual activity (%)
One number for each entry, in %.

| COMPOUND | RESULT UNITS | residual activity |
| --- | --- | --- |
| CC1=C(CO)C(=O)O[C@@H]([C@@H](C)[C@H]2CC[C@H]3[C@@H]4C[C@H]5O[C@]56[C@@H](O)C=CC(=O)[C@]6(C)C4CC[C@]23C)C1 (stereo partly specified) | % | 101 |
| CCn1c(-c2nonc2N)nc2cncc(CNC3CCNCC3)c21 | % | 102 |

# batch size: 4; output residual activity per entry
1. CNC(=O)C1[C@H]2O[C@@](C)([C@@H]1N)n1c3ccccc3c3c4c(c5c6ccccc6n2c5c31)C(=O)NC4 (stereo partly specified)
2. CCCCCc1ccc(/C=C/[C@H](O)[C@@H](CO)NC)cc1
3. C=CC(=O)N1CCC[C@@H](n2nc(-c3ccc(Oc4ccccc4)cc3)c3c(N)ncnc32)C1
4. c1ccc2c(-c3cnn4cc(-c5ccc(N6CCNCC6)cc5)cnc34)ccnc2c1

Response line:
82
110
87
43

----------
Biological target: DYRK2 (human)
Assay: radiometric filter-binding kinase assay
Conditions: compound 0.1 µM
QUANTITY KIND: residual activity

| COMPOUND | OBSERVED MEASUREMENT |
| --- | --- |
| CNc1nc(-c2ccc3c(N)n[nH]c3c2)cc(N2C[C@@H](C(=O)NC3CCCCC3)CC[C@H]2C)n1 | 108% |
| O=C(NCCCNc1nc(Nc2cccc(CN3CCOCC3)c2)ncc1C1CC1)C1CCC1 | 92% |
| CCCCCc1ccc(/C=C/[C@H](O)[C@@H](CO)NC)cc1 | 116% |

# batch size: 2; output residual activity per entry
1. COc1ccc2c(c1)c1c3c(c4c5ccccc5n(C)c4c1n2CC(O)CN(C)C)C(=O)NC3=O (stereo unspecified)
2. CCc1cncnc1N1CCN(Cc2nc3cc(C(F)(F)F)ccc3[nH]2)CC1

Response line:
98%
97%

# batch size: 3; output residual activity per entry
1. O=C(Nc1nc2cc(C(F)(F)F)cc(NC3CC3)n2n1)c1cccnc1
2. Cc1cc(NC(=O)c2cccc(NC(=O)/C=C/CN(C)C)c2)ccc1Nc1nccc(-c2cccnc2)n1
3. NC(=O)Nc1ccc2c(c1)/C(=C/c1cc(-c3cccnc3)c[nH]1)C(=O)N2

Response line:
92%
73%
19%

# batch size: 3; output residual activity per entry
1. COc1ccc(-n2ncc3cnc(Nc4cc(OC)c(OC)c(OCCCN5CCN(C)CC5)c4)nc32)cc1
2. Cn1c(=O)c2c(ncn2C)n(C)c1=O
3. NC(=O)c1cc(-c2ccnc(NC3CCCCC3)c2)nc(N2CCNCC2)c1

Response line:
1: 50%; 2: 81%; 3: 74%

----------
Target: YES1 (human)
Assay: radiometric filter-binding kinase assay
Conditions: compound 1.0 µM
Exercise: state measured residual activity for each of the molecules provided.
Please state the value followed by its unit.

Below, each entry is followed by its recorded residual activity result.
| COMPOUND SMILES | SYSTEM UNDER TEST | QUANTITY KIND | OBSERVED MEASUREMENT |
| --- | --- | --- | --- |
| CN1C(=O)[C@@H](Cc2c[nH]c3ccccc23)NC1=S | YES1 (human) | residual activity | 107% |
| NC1(c2ccc(-c3nc4ccn5c(=O)[nH]nc5c4cc3-c3ccccc3)cc2)CCC1 | YES1 (human) | residual activity | 99% |
| COc1cc(O)c2c(c1)/C=C/C[C@H](O)[C@H](O)C(=O)/C=C\C[C@H](C)OC2=O | YES1 (human) | residual activity | 60% |
| O=C(NOC[C@H](O)CO)c1ccc(F)c(F)c1Nc1ccc(I)cc1Cl | YES1 (human) | residual activity | 82% |

Prompt line: Give residual activity (YES1 (human)) of the following molecule: COc1cc2ncn(-c3cc(OCc4ccccc4S(C)(=O)=O)c(C#N)s3)c2cc1OC
Response line: 43%

----------
Exercise: state measured residual activity for each of the compounds provided.
Biological target: TLK1 (human)
Experiment: radiometric filter-binding kinase assay
Conditions: compound 0.01 µM
Give bare numbers, in %.

Below, each entry is followed by its recorded residual activity result.
| COMPOUND | RESULT UNITS | residual activity |
| --- | --- | --- |
| COc1cc(O)c2c(c1)[C@H]1OC1C[C@H](O)[C@H](O)C(=O)/C=C\C[C@H](C)OC2=O (some centres undefined) | % | 95 |
| COc1ccc(N(C(=O)Nc2c(C)cccc2C)c2cc(Nc3ccc(N4CCN(C)CC4)cc3)ncn2)c(OC)c1 | % | 98 |
| O=C(Nc1nc2cc(C(F)(F)F)cc(NC3CC3)n2n1)c1cccnc1 | % | 107 |

Now look at this entry.
Prompt line: For the compound shown here, CNC(=O)C1[C@H]2O[C@@](C)([C@@H]1N)n1c3ccccc3c3c4c(c5c6ccccc6n2c5c31)C(=O)NC4 (some centres undefined) , give the reported residual activity.
Response line: 93
